KD (human)/KD (cyno): recorded values
# SYSTEM NAME: cynomolgus monkey heterodimeric single-chain CD3εγ extracellular domain (cynomolgus monkey, UniProt Q95LI5 22-117; Q95LI7 23-113)
# Sequence (Q95LI7 other isoform, or with tags, fused parts or gaps): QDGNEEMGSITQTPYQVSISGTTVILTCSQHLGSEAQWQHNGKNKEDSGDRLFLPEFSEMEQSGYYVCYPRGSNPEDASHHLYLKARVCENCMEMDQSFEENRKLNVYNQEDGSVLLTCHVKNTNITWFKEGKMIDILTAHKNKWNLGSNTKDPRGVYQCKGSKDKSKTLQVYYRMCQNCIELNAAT
# METHOD NOTES: SPR; ratio of the KDs for cyno and human single-chain CD3εγ
Respond numerically, and do not add a unit to the figure.

Worked examples, 2 binders total:
- clone-10 (antibody, V domains shown, Recombinant rabbit IgG) VH: QSLEESGGRLVTPGTPLTLTCTVSGFPLSSFAMLWVRQAPGKGLEWIGMIMRAHNMYYASWAKGRFTISKTSTTVDLEITSPTTEDTATYFCARRHYNTYGYPIAIGDLWGPGTLVTVSS VL: AQVLTQTPSSVSAAVGGTATISCQSNENIYSNNRLSWFQQKAGQPPNQLIYSASSLASGVPSRFKGSGSGTQFTLTISDLECDDAATYYCQGEFSCSSADCFTFGGGTEVVVKG: 7
- clone-12 (antibody, V domains shown, Recombinant rabbit IgG) VH: QSLEESGGRLVTPGTPLTLTCTVSGFPLSRYAMLWVRQAPGKGLEWIGLITRADNKYYASWAKGRFTISKTSTTVDLEITSPTTEDTATYFCARRHYNTDGYPIAIGDLWGPGTLVTVSS VL: AQVLTQTPSSVSATVGGTVTISCQSNENIYSNNRLSWFQQKPGQPPKLLIYSASSLASGVPSRFKGSGSGTQFTLTISDLECDDAATYYCQGEFNCNSADCFTFGGGTEVVVKG: 20

Now let's try a different one.
Recorded result, clone-06 (antibody, V domains shown, Recombinant rabbit IgG; also called Clone 6) VH: QSVEESGGRLVTPGTPLTLTCTVSGFPLSSYAMIWVRQAPGKGLEWIGMILRAGNIYYASWVKGRVTISKTSTTVDLKITSPTTEDTATYFCARRHYNREGYPIGIGDLWGPGTLVTVSS VL: AQVLTQTPSSVSAAVGGTVTISCQSSESVYNNKRLSWFQQKPGQPPKQLIYTASSLASGVPSRFKGSGSGTQFTLTISDLECDDAATYYCQGEFTCSNADCFTFGGGTEVVVKG , KD (human)/KD (cyno): 4
